# System: ACHN (Kidney Carcinoma)
# Measurement description: combination Emax (second highest fraction inhibited in the dose matrix, 72 h); higher = more inhibition; extreme values may be limits of the assay
Please note: condition met applies when combination Emax is 0.2 or greater, and condition not met applies otherwise.

Example results:
Threshold query (combination Emax >= 0.2) on COc1cc2c(cc1OCCCCCOc1cc3c(cc1OC)C(=O)N1C=C(C)C[C@H]1C=N3)N=C[C@@H]1CC(C)=CN1C2=O [SG3199] + O=C(c1cc(Cc2n[nH]c(=O)c3ccccc23)ccc1F)N1CCN(C(=O)C2CC2)CC1 [Olaparib] (first compound max 0.001 µM, 7x7, partner max 10 µM)
condition not met

Threshold query (combination Emax >= 0.2) on CN(CCO)CC[C@H](CSc1ccccc1)Nc1ccc(S(=O)(=O)NC(=O)c2ccc(N3CCC([C@@H](O)c4ccccc4-c4ccc(Cl)cc4)CC3)cc2)cc1S(=O)(=O)C(F)(F)F [AZD4320] + C[C@@H]1COCCN1C2=NC(=NC(=C2)C3(CC3)[S@](=N)(=O)C)C4=C5C=CNC5=NC=C4 [AZD6738] (first compound max 1 µM, 7x7, partner max 10 µM)
condition met

Threshold query (combination Emax >= 0.2) on COc1nnc2ccc(N3CCC(c4ccc(OCCN5CCN(C)C(=O)[C@H]5C)cc4)CC3)nn12 [AZD5153] + CC1(C)CCC(CN2CCN(c3ccc(C(=O)NS(=O)(=O)c4ccc(NCC5CCOCC5)c([N+](=O)[O-])c4)c(Oc4cnc5[nH]ccc5c4)c3)CC2)=C(c2ccc(Cl)cc2)C1 [Venetoclax] (first compound max 1 µM, 7x7, partner max 1 µM)
condition met

Threshold query (combination Emax >= 0.2) on CN(CCO)CC[C@H](CSc1ccccc1)Nc1ccc(S(=O)(=O)NC(=O)c2ccc(N3CCC([C@@H](O)c4ccccc4-c4ccc(Cl)cc4)CC3)cc2)cc1S(=O)(=O)C(F)(F)F [AZD4320] + CCN(CCO)CCCOc1ccc2c(Nc3cc(CC(=O)Nc4cccc(F)c4)[nH]n3)ncnc2c1 [AZD2811] (first compound max 1 µM, 7x7, partner max 1 µM)
condition met

Threshold query (combination Emax >= 0.2) on C=CCn1c(=O)c2cnc(Nc3ccc(N4CCN(C)CC4)cc3)nc2n1-c1cccc(C(C)(C)O)n1 [AZD1775] + CCc1c2c(nc3ccc(O)cc13)-c1cc3c(c(=O)n1C2)COC(=O)[C@]3(O)CC [SN-38] (first compound max 1 µM, partner max 0.3 µM)
condition met

New cases:
Threshold query (combination Emax >= 0.2) on C[C@@H](c1ccc2nccn2c1)n1nnc2ncc(-c3cnn(C)c3)nc21 [Savolitinib] + Cc1c2c(nn1C)CSCc1cc(n(C)n1)CSc1cc(c3ccccc3c1)OCCCc1c(C(=O)O)n(C)c3c-2c(Cl)ccc13 [AZD5991] (first compound max 1 µM, 7x7, partner max 1 µM)
condition not met

* * *

# Test system: ACHN (Kidney Carcinoma)
# Measurement description: Bliss excess, mean over the matrix (fraction); higher = more synergy
Would you kindly list Bliss excess for each of these molecules?
Answers are plain numbers.

Form: molecule = N#Cc1cnc(Nc2cc(NC[C@H]3CNCCO3)c(C(F)(F)F)cn2)cn1 [SRA737] + C=CCn1c(=O)c2cnc(Nc3ccc(N4CCN(C)CC4)cc3)nc2n1-c1cccc(C(C)(C)O)n1 [AZD1775] (first compound max 10 µM, partner max 1 µM) ; Bliss excess = -0.0285

Form: molecule = CCN(CCO)CCCOc1ccc2c(Nc3cc(CC(=O)Nc4cccc(F)c4)[nH]n3)ncnc2c1 [AZD2811] + C[C@@H]1COCCN1C2=NC(=NC(=C2)C3(CC3)[S@](=N)(=O)C)C4=C5C=CNC5=NC=C4 [AZD6738] (first compound max 1 µM, 7x7, partner max 10 µM) ; Bliss excess = -0.0369

Proceed to the following item.
Form: molecule = CC1(C)CCC(CN2CCN(c3ccc(C(=O)NS(=O)(=O)c4ccc(NCC5CCOCC5)c([N+](=O)[O-])c4)c(Oc4cnc5[nH]ccc5c4)c3)CC2)=C(c2ccc(Cl)cc2)C1 [Venetoclax] + CN(C)CCCOc1ccc(-c2ccc3ncc4c(c3c2)n(C2CCOCC2)c(=O)n4C)cn1 [AZD0156] (first compound max 1 µM, 7x7, partner max 1 µM) ; Bliss excess = -0.0333

* * *

# Tested on: NB69 (Neuroblastoma)
# Measurement description: combination Emax (second highest fraction inhibited in the dose matrix, 72 h); higher = more inhibition; extreme values may be limits of the assay
Parameter: combination Emax

Form: compound = C[C@@H](Oc1cc(-c2cnn(C3CCNCC3)c2)cnc1N)c1c(Cl)ccc(F)c1Cl [Crizotinib] + Cn1cnc2c(F)c(Nc3ccc(Br)cc3Cl)c(C(=O)NOCCO)cc21 [Selumetinib] (first compound max 10 µM, 7x7, partner max 10 µM) ; combination Emax = 1

Proceed to the following item.
Form: compound = CS(=O)(=O)CCNCc1ccc(-c2ccc3ncnc(Nc4ccc(OCc5cccc(F)c5)c(Cl)c4)c3c2)o1 [Lapatinib] + NC1(c2ccc(-c3nc4ccn5c(=O)[nH]nc5c4cc3-c3ccccc3)cc2)CCC1 [MK-2206] (first compound max 10 µM, 7x7, partner max 10 µM) ; combination Emax = 0.941

* * *

# System: EFM-19 (Breast Carcinoma)
# Measurement description: Bliss excess, mean over the matrix (fraction); higher = more synergy
Parameter: Bliss excess
Give bare numbers.

Form: compound = Cn1cnc2c(F)c(Nc3ccc(Br)cc3Cl)c(C(=O)NOCCO)cc21 [Selumetinib] + CCN(CCO)CCCOc1ccc2c(Nc3cc(CC(=O)Nc4cccc(F)c4)[nH]n3)ncnc2c1 [AZD2811] (first compound max 10 µM, 7x7, partner max 1 µM) ; Bliss excess = 0.0054

Proceed to the following item.
Form: compound = O=C(c1cc(Cc2n[nH]c(=O)c3ccccc23)ccc1F)N1CCN(C(=O)C2CC2)CC1 [Olaparib] + Cc1c2c(nn1C)CSCc1cc(n(C)n1)CSc1cc(c3ccccc3c1)OCCCc1c(C(=O)O)n(C)c3c-2c(Cl)ccc13 [AZD5991] (first compound max 10 µM, 7x7, partner max 1 µM) ; Bliss excess = 0.0102

* * *

# Tested on: MLMA (Other Blood Carcinomas)
# Measurement description: Bliss excess, mean over the matrix (fraction); higher = more synergy
Parameter: Bliss excess
Give bare numbers.

The cases that follow already have their Bliss excess on record.
Form: compound = CN(C)CCCOc1ccc(-c2ccc3ncc4c(c3c2)n(C2CCOCC2)c(=O)n4C)cn1 [AZD0156] + O=C(c1cc(Cc2n[nH]c(=O)c3ccccc23)ccc1F)N1CCN(C(=O)C2CC2)CC1 [Olaparib] (first compound max 3 µM, partner max 3 µM) ; Bliss excess = 0.0255

Form: compound = COc1nnc2ccc(N3CCC(c4ccc(OCCN5CCN(C)C(=O)[C@H]5C)cc4)CC3)nn12 [AZD5153] + C[C@@H]1COCCN1C2=NC(=NC(=C2)C3(CC3)[S@](=N)(=O)C)C4=C5C=CNC5=NC=C4 [AZD6738] (first compound max 1 µM, 7x7, partner max 10 µM) ; Bliss excess = -0.111

Form: compound = N#Cc1cnc(Nc2cc(NC[C@H]3CNCCO3)c(C(F)(F)F)cn2)cn1 [SRA737] + Nc1ccn([C@@H]2O[C@H](CO)[C@@H](O)C2(F)F)c(=O)n1 [Gemcitabine] (first compound max 10 µM, 7x7, partner max 0.3 µM) ; Bliss excess = -0.0924

Proceed to the following item.
Form: compound = COc1nnc2ccc(N3CCC(c4ccc(OCCN5CCN(C)C(=O)[C@H]5C)cc4)CC3)nn12 [AZD5153] + CC1(C)CCC(CN2CCN(c3ccc(C(=O)NS(=O)(=O)c4ccc(NCC5CCOCC5)c([N+](=O)[O-])c4)c(Oc4cnc5[nH]ccc5c4)c3)CC2)=C(c2ccc(Cl)cc2)C1 [Venetoclax] (first compound max 1 µM, 7x7, partner max 1 µM) ; Bliss excess = -0.0084

* * *

Would you kindly list Bliss excess for each of these compounds?
# System: TK10 (Kidney Carcinoma)
# Measurement description: Bliss excess, mean over the matrix (fraction); higher = more synergy

Readout Bliss excess for CN(C)CCCOc1ccc(-c2ccc3ncc4c(c3c2)n(C2CCOCC2)c(=O)n4C)cn1 [AZD0156] + C=CCn1c(=O)c2cnc(Nc3ccc(N4CCN(C)CC4)cc3)nc2n1-c1cccc(C(C)(C)O)n1 [AZD1775] (first compound max 1 µM, partner max 1 µM) , test system TK10 (Kidney Carcinoma), was -0.0318

Proceed to the following item.
Readout Bliss excess for C[C@@H]1COCCN1c1cc(C2([S@](C)(=N)=O)CC2)nc(-c2ccnc3[nH]ccc23)n1 [AZD6738] + O=C(c1cc(Cc2n[nH]c(=O)c3ccccc23)ccc1F)N1CCN(C(=O)C2CC2)CC1 [Olaparib] (first compound max 10 µM, 7x7, partner max 10 µM) , test system TK10 (Kidney Carcinoma), was -0.0735

* * *

Would you kindly list Bliss excess for each of these compounds?
# Tested on: PANC-04-03 (Pancreatic Carcinoma)
# Measurement description: Bliss excess, mean over the matrix (fraction); higher = more synergy
One number for each entry.

The cases that follow already have their Bliss excess on record.
Form: compound = COc1cc2ncnc(Nc3ccc(F)c(Cl)c3)c2cc1OCCCN1CCOCC1 [Gefitinib] + CC(C)n1c(=O)n(C)c2cnc3cc(F)c(-c4ccc(OCCCN5CCCCC5)nc4)cc3c21 [AZD1390] (first compound max 10 µM, 7x7, partner max 0.3 µM) ; Bliss excess = -0.0853

Form: compound = CC1(C)CCC(CN2CCN(c3ccc(C(=O)NS(=O)(=O)c4ccc(NCC5CCOCC5)c([N+](=O)[O-])c4)c(Oc4cnc5[nH]ccc5c4)c3)CC2)=C(c2ccc(Cl)cc2)C1 [Venetoclax] + C=CCn1c(=O)c2cnc(Nc3ccc(N4CCN(C)CC4)cc3)nc2n1-c1cccc(C(C)(C)O)n1 [AZD1775] (first compound max 1 µM, partner max 1 µM) ; Bliss excess = -0.0597

Form: compound = CCc1c2c(nc3ccc(O)cc13)-c1cc3c(c(=O)n1C2)COC(=O)[C@]3(O)CC [SN-38] + O=C(c1cc(Cc2n[nH]c(=O)c3ccccc23)ccc1F)N1CCN(C(=O)C2CC2)CC1 [Olaparib] (first compound max 0.3 µM, 7x7, partner max 10 µM) ; Bliss excess = 0.0215

Form: compound = COc1cccc(OCCCN)c1-c1cc(Nc2cnc(C#N)cn2)n[nH]1 [Prexasertib] + Cc1cc2ncnn2cc1Nc1ncc2c(n1)n(C1CCOCC1)c(=O)n2C [AZD7648] (first compound max 1 µM, 7x7, partner max 10 µM) ; Bliss excess = -0.0327

Form: compound = CN(C)CCCOc1ccc(-c2ccc3ncc4c(c3c2)n(C2CCOCC2)c(=O)n4C)cn1 [AZD0156] + C=CCn1c(=O)c2cnc(Nc3ccc(N4CCN(C)CC4)cc3)nc2n1-c1cccc(C(C)(C)O)n1 [AZD1775] (first compound max 1 µM, partner max 1 µM) ; Bliss excess = -0.0836

Form: compound = CN(CCO)CC[C@H](CSc1ccccc1)Nc1ccc(S(=O)(=O)NC(=O)c2ccc(N3CCC([C@@H](O)c4ccccc4-c4ccc(Cl)cc4)CC3)cc2)cc1S(=O)(=O)C(F)(F)F [AZD4320] + C[C@@H]1COCCN1C2=NC(=NC(=C2)C3(CC3)[S@](=N)(=O)C)C4=C5C=CNC5=NC=C4 [AZD6738] (first compound max 1 µM, 7x7, partner max 10 µM) ; Bliss excess = -0.0714

Form: compound = CC1(C)CCC(CN2CCN(c3ccc(C(=O)NS(=O)(=O)c4ccc(NCC5CCOCC5)c([N+](=O)[O-])c4)c(Oc4cnc5[nH]ccc5c4)c3)CC2)=C(c2ccc(Cl)cc2)C1 [Venetoclax] + Cc1cc2ncnn2cc1Nc1ncc2c(n1)n(C1CCOCC1)c(=O)n2C [AZD7648] (first compound max 1 µM, 7x7, partner max 10 µM) ; Bliss excess = -0.0617

Form: compound = C=CCn1c(=O)c2cnc(Nc3ccc(N4CCN(C)CC4)cc3)nc2n1-c1cccc(C(C)(C)O)n1 [AZD1775] + O=C(c1cc(Cc2n[nH]c(=O)c3ccccc23)ccc1F)N1CCN(C(=O)C2CC2)CC1 [Olaparib] (first compound max 1 µM, partner max 10 µM) ; Bliss excess = -0.0407

Form: compound = C[C@@H](c1ccc2nccn2c1)n1nnc2ncc(-c3cnn(C)c3)nc21 [Savolitinib] + CC1(C)CCC(CN2CCN(c3ccc(C(=O)NS(=O)(=O)c4ccc(NCC5CCOCC5)c([N+](=O)[O-])c4)c(Oc4cnc5[nH]ccc5c4)c3)CC2)=C(c2ccc(Cl)cc2)C1 [Venetoclax] (first compound max 1 µM, 7x7, partner max 1 µM) ; Bliss excess = -0.0736

Form: compound = CN(C)CCCOc1ccc(-c2ccc3ncc4c(c3c2)n(C2CCOCC2)c(=O)n4C)cn1 [AZD0156] + C[C@@H]1COCCN1C2=NC(=NC(=C2)C3(CC3)[S@](=N)(=O)C)C4=C5C=CNC5=NC=C4 [AZD6738] (first compound max 1 µM, 7x7, partner max 10 µM) ; Bliss excess = -0.0398

Can you give me Bliss excess for all of these, one by one?
1. C=CCn1c(=O)c2cnc(Nc3ccc(N4CCN(C)CC4)cc3)nc2n1-c1cccc(C(C)(C)O)n1 [AZD1775] + Nc1ccn([C@@H]2O[C@H](CO)[C@@H](O)C2(F)F)c(=O)n1 [Gemcitabine] (first compound max 1 µM, partner max 0.3 µM)
2. CC(=O)c1c(C)c2cnc(Nc3ccc(N4CCNCC4)cn3)nc2n(C2CCCC2)c1=O [Palbociclib] + Cc1c2c(nn1C)CSCc1cc(n(C)n1)CSc1cc(c3ccccc3c1)OCCCc1c(C(=O)O)n(C)c3c-2c(Cl)ccc13 [AZD5991] (first compound max 10 µM, 7x7, partner max 1 µM)
3. C[C@@H](Oc1cc(-c2cnn(C3CCNCC3)c2)cnc1N)c1c(Cl)ccc(F)c1Cl [Crizotinib] + Cn1cnc2c(F)c(Nc3ccc(Br)cc3Cl)c(C(=O)NOCCO)cc21 [Selumetinib] (first compound max 10 µM, 7x7, partner max 10 µM)

1. -0.0346
2. -0.0464
3. -0.0194
